- MEASUREMENT TARGET: Bcl-2 protein (Recombinant Human Bcl-2 Protein) (Homo sapiens, UniProt P10415)
- Construct: purchased Novus Biologicals NBP2-34889
- Sequence (P10415 whole entry): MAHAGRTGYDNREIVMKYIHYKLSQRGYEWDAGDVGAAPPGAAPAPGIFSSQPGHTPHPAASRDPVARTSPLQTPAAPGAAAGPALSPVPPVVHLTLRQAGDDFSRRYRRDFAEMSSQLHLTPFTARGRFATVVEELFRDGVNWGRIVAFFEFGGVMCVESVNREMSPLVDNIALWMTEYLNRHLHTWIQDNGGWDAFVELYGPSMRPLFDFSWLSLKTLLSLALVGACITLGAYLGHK
- PROTOCOL TEXT: AS-MS evaluation of binding of the Example 4 mixture library (1200 compounds/well) to Bcl-2, ASMS ratio (%)
- COND: replicate n = 1; mixture library; value belongs to the MS peak assigned to the compound
EXPERIMENTAL READOUT: ASMS ratio (%) n = 1

- SMILES STRING: "CCOc1cncc(C#Cc2cc(C(=O)N3CCN(c4ccc(C(=O)NS(=O)(=O)C(C)(C)C)cc4)CC3)cc(C(F)(F)F)c2)c1"
  EXPERIMENTAL READOUT: "ASMS ratio (%) n = 1"
  READING: 0.0
- SMILES STRING: "CCOc1cccc(-c2ccc(C(=O)N3CCN(c4ccc(C(=O)NS(=O)(=O)C(C)(C)C)cc4)CC3)cc2F)c1"
  EXPERIMENTAL READOUT: "ASMS ratio (%) n = 1"
  READING: 0.0
- SMILES STRING: "CCOc1cccc(-c2ccc(C(=O)N3CCN(c4ccc(C(=O)NS(=O)(=O)C(C)(C)C)cc4)CC3)c3ccccc23)c1"
  EXPERIMENTAL READOUT: "ASMS ratio (%) n = 1"
  READING: 0.0
- SMILES STRING: "CCOc1cccc(-c2cnn(-c3cc(C(=O)N4CCN(c5ccc(C(=O)NS(=O)(=O)C(C)(C)C)nn5)CC4)cc(C(F)(F)F)c3)c2)c1"
  EXPERIMENTAL READOUT: "ASMS ratio (%) n = 1"
  READING: 0.0
- SMILES STRING: "CCOc1cccc(-c2ccc(CN3CCN(c4ccc(C(=O)NS(=O)(=O)C(C)(C)C)nn4)CC3)cc2F)c1"
  EXPERIMENTAL READOUT: "ASMS ratio (%) n = 1"
  READING: 0.0

[P] CCOc1cncc(-c2ccc(CN3CCN(c4ccc(C(=O)NS(=O)(=O)C(C)(C)C)cc4)CC3)c(OC)c2)c1
[Q] CCOc1cncc(-c2ccc(CN3CCN(c4ccc(C(=O)NS(=O)(=O)C(C)(C)C)nn4)CC3)cc2F)c1
[Q] Between P and Q , which one shows the larger ASMS ratio (%) n = 1 value? Label of pick, please.
[A] Q
(Q: 1.1%, P: 0.0%)

[A] CCOc1cccc(C#Cc2ccccc2CN2CCN(c3ccc(C(=O)NS(=O)(=O)C(C)(C)C)cc3)CC2)c1
[B] CCOc1cncc(-c2cc(CN3CCN(c4ccc(C(=O)NS(C)(=O)=O)nn4)CC3)cc(OC(C)C)c2)c1
[C] CCOc1cncc(-c2ccc(C(=O)N3CCN(c4ccc(C(=O)NS(=O)(=O)C(C)(C)C)nn4)CC3)cc2C)c1
[D] CCOc1cncc(-c2ccccc2CN2CCN(c3ccc(C(=O)NS(=O)(=O)C(C)(C)C)nn3)CC2)c1
[Q] # ascending order, key=ASMS ratio (%) n = 1 Answer format: the labels, in the requested order.
[A] D, B, A, C
(D: −10.7%, B: −0.9%, A: 0.0%, C: 5.5%)

[A] CCOc1cccc(-c2cc(C(=O)N3CCN(c4ccc(C(=O)NS(=O)(=O)C(C)(C)C)nn4)CC3)cc(C(F)(F)F)c2)c1
[B] CCOc1cccc(-c2ccccc2CN2CCN(c3ccc(C(=O)NS(C)(=O)=O)nn3)CC2)c1
[Q] Could you check which of A and B has a smaller value for ASMS ratio (%) n = 1? Mark your answer with the label of the selected entry.
[A] B
